ASSAY TEXT: Cytotoxicity against human C8166 cells by MTT assay
Assay type: cell-based
QUANTITY NAME: CC50

> print(dat)
                                    molecule  quantity.name  experimental.result
 1  COc1cc(C[C@@H](C)[C@@H](C)Cc2ccc(O)c(OC)c2)ccc1O [MESODIHYDROGUAIARETIC ACID]           CC50              49.1 µM
 2  COc1c2c(cc3c1-c1c(cc4c(c1OC)OCO4)[C@@H](O)[C@@H](C)[C@@H](C)C3)OCO2           CC50               221 µM
 3  C/C=C(\C)C(=O)O[C@@H]1c2cc(OC)c(OC)c(O)c2-c2c(cc(OC)c(OC)c2OC)[C@@H](OC(C)=O)[C@H](C)[C@@H]1C           CC50              72.2 µM
 4  COc1c2c(cc3c1-c1c(cc4c(c1OC)OCO4)[C@@H](O)[C@@H](C)[C@@H](C)[C@@H]3O)OCO2           CC50             > 200 µM
 5  C/C=C(/C)C(=O)O[C@@H]1c2cc(OC)c(OC)c(OC)c2-c2c(cc3c(c2OC)OCO3)[C@@H](OC(C)=O)[C@H](C)[C@]1(C)O           CC50             > 200 µM
 6  COc1c2c(cc3c1-c1c(cc4c(c1OC)OCO4)[C@@H](OC(C)=O)[C@H](C)[C@H](C)[C@@H]3O)OCO2           CC50             > 200 µM
 7  COc1cc2c(c(OC)c1OC)-c1c(cc3c(c1OC)OCO3)[C@H]1O[C@@H]2[C@@H](C)[C@H]1C           CC50               361 µM
 8  COc1c2c(cc3c1-c1c(cc4c(c1OC)OCO4)[C@@H](O)[C@H](C)[C@H](C)C3=O)OCO2           CC50               212 µM
 9  COc1cc2c(c(O)c1OC)-c1c(cc(OC)c(OC)c1OC)[C@@H](OC(C)=O)[C@H](C)[C@](C)(O)[C@@H]2OC(=O)/C=C/c1ccccc1           CC50               190 µM
10  COc1cc2c(c(O)c1OC)-c1c(cc(OC)c(OC)c1OC)[C@@H](OC(C)=O)[C@H](C)[C@H](C)[C@@H]2OC(=O)/C=C/c1ccccc1           CC50              97.5 µM
11  COc1cc2c(c(O)c1OC)-c1c(cc(O)c(OC)c1OC)[C@@H](O)[C@H](C)[C@H](C)C2           CC50               281 µM
12  C=CCc1cc(OC)c2c(c1)[C@H](CO)[C@@H](c1ccc(O)c(OC)c1)O2           CC50              38.1 µM
13  C/C=C(/C)C(=O)O[C@@H]1c2cc3c(c(OC)c2-c2c(cc4c(c2OC)OCO4)[C@@H](O)[C@H](C)[C@@H]1C)OCO3           CC50             > 200 µM
